target: Recombinant Human ENPP-1 Protein (purified in-house) (Homo sapiens (Human)); test: ENPP1 Assay (TMP), Example 2; assay type: biochemical; details: FIG. 5A, TMP substrate; read-out: IC50
Sequence (P22413 whole entry, looked up): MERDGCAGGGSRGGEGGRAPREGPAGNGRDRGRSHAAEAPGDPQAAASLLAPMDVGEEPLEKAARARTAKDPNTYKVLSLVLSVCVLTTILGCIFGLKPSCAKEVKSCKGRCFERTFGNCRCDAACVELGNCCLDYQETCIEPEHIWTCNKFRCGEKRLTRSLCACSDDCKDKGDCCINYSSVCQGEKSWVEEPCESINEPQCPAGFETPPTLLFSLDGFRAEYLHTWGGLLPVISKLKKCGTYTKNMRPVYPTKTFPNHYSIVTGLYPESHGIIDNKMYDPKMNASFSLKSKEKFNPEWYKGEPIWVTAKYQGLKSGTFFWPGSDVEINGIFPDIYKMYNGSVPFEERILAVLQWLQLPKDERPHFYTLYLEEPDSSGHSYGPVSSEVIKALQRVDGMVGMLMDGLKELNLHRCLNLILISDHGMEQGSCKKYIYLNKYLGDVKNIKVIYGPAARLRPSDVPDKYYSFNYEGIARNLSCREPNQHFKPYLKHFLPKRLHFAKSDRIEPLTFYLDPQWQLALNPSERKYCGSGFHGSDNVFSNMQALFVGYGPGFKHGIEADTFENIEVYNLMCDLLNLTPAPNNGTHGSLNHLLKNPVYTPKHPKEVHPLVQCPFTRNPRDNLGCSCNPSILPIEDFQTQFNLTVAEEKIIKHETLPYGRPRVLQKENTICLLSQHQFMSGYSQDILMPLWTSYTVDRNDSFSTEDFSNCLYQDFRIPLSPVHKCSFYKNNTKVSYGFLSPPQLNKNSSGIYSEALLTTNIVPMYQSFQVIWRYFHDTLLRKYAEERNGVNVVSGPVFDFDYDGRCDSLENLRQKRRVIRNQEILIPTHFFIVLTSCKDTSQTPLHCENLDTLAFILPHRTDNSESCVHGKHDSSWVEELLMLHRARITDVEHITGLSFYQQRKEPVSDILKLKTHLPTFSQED
Kindly state pIC50 for each of the entries shown.
Give bare numbers, as −log10 of the molar value.

[[record]]
molecule = "COc1ccc(NC(=O)c2cnc(CSc3nc4c(C)c(C#N)ncc4[nH]3)s2)cc1O"
test_system = "Recombinant Human ENPP-1 Protein (purified in-house) (Homo sapiens (Human))"
result = 5.79

[[record]]
molecule = "COc1cc(NC(=O)CSc2nc3c(C)c(C#N)ncc3[nH]2)ccc1OP(=O)([O-])[O-].[Na+].[Na+] [Compound 108, phosphate]"
test_system = "Recombinant Human ENPP-1 Protein (purified in-house) (Homo sapiens (Human))"
result = 5.69


Batch lookup, pIC50 per entry.
1. COc1ccc(NC(=O)CSc2nc3c(C)c(C#N)ncc3[nH]2)cc1O
2. COc1ccc(NC(=O)CSc2nc3c(C)c(C#N)ncc3[nH]2)cc1OP(=O)(O)O [Compound 107, phosphate]

1: 6.57; 2: 6.63
